Test system: HL-60(TB) leukemia
Assay: NCI tumour cell line growth inhibition, 48 h
measured.parameter: TGI

In [3]: df
Out[3]:
                                   molecule  observed_measurement
0  COc1ccc(N=C/C=C/C(=C/COC(C)=O)OC(C)=O)cc1               98.5 µM
1  CC1(C)O[C@@H]([C@@H](O)[C@H](O)C2SCCCS2)[C@@H](CO)O1              > 100 µM
2        COc1ccc(C=O)c(N(C)C(=O)C(C)(C)C)c1              > 100 µM

// for each molecule below, give its TGI
1. Nc1cccc2cc(S(=O)(=O)Nc3ccc(C(=O)O)cc3)ccc12
2. C=C1C(=O)OC2C3C(=C)[C@@H](OC(C)=O)CC3C(C)=CC(OC(=O)C(C)(O)C(C)OC(C)=O)[C@@H]12 (stereo not given in full)
3. COc1cc(-c2[nH]ncc2CCCC(=O)Nc2ccccc2[N+](=O)[O-])ccc1O
4. NC(N)=NCCCS(=O)(=O)Nc1ccc(Nc2c3ccccc3nc3cc([N+](=O)[O-])ccc23)cc1
5. c1ccc(CNc2nc(Nc3ccc(-c4nc5ccccc5[nH]4)cc3)c3cn[nH]c3n2)cc1
6. CCN=C(N)CSS(=O)(=O)O
7. CSC(=S)Nc1cc(C)ccn1

1. > 100 µM
2. 5.57 µM
3. > 100 µM
4. > 82.4 µM
5. 7.44 µM
6. > 100 µM
7. > 100 µM

---

System: SF-268 CNS
Test: NCI tumour cell line growth inhibition, 48 h
Kindly supply the reported TGI values for the records listed here.
Give bare numbers, in µM.

                                chem_smiles  measurement_unit  observed_measurement
0         O=C(CCl)Nc1ccc(-c2nc3ccccc3s2)cc1                µM                  8.44
1  COC(=O)/C=C(\S/C(=C(/c1ccccc1)n1cc(C(=O)OC)c(C(=O)OC)n1)c1ccccc1)C(=O)OC                µM                  32.8

Moving on to another compound below.
Which value of TGI has been reported for "COc1ccc2c(c1)C(=O)/C(=C/c1ccc(OCC(=O)c3ccc(Cl)cc3)cc1)O2" in the records? 48.6

---

System: MALME-3M melanoma
Test: NCI tumour cell line growth inhibition, 48 h
measured.parameter: GI50

Before answering, review these 4 worked examples.
>>> df
                                chem_smiles  observed_measurement
0  Oc1ccc(-c2nc(-c3ccc(F)cc3)c(-c3ccncc3)[nH]2)cc1               2.45 µM
1                 OCCC#Cc1ccccc1C#Cc1ccccc1                 14 µM
2  CCN(CC)c1ccc(/C=C/C2=[N+](C)c3ccccc3C2(C)C)cc1               0.29 µM
3  Cn1cc(-c2ccc3c(c2)ncn3-c2ccc(CC(=O)Nc3cc(C(C)(C)C)on3)cc2)cn1               1.29 µM

Moving on to another compound below.
Which value of GI50 has been reported for "c1ccc(CNc2nc(Nc3ccc(-c4nc5ccccc5[nH]4)cc3)c3cn[nH]c3n2)cc1" in the records? 1.81 µM

---

Kindly supply the reported TGI values for the records listed here.
Test system: MDA-MB-435
Assay: NCI tumour cell line growth inhibition, 48 h

>>> print(df.to_string())
                                chem_smiles  observed_measurement
0   O=C(CN1c2ccccc2Sc2ccccc21)n1cnc2ccccc21              > 100 µM
1  CC(C)Cn1cnnc1NS(=O)(=O)c1cc(C(=O)NN)c(Cl)cc1S               > 10 µM

// for each compound below, give its TGI
1. Nc1nc(SCC(=O)c2ccccc2)nc2nc3c(c(-c4ccccc4)c12)CCCC3
2. Cn1cc(-c2ccc3c(c2)ncn3-c2ccc(CC(=O)Nc3cc(C(C)(C)C)on3)cc2)cn1

["> 100 µM", "> 100 µM"]

---

Tested on: HOP-62 NSCLC
Assay: NCI tumour cell line growth inhibition, 48 h
Kindly supply the reported TGI values for the records listed here.
Give bare numbers, in µM.

In [3]: df
Out[3]:
               molecule  measured_parameter  measurement_unit  observed_measurement
0  ClCc1nc2cc(Cl)ccc2o1                 TGI                µM                  8.28

Moving on to another molecule below.
Which value of TGI has been reported for C=C1C(=O)C23C(O)C1CCC2C12CO[C@]3(O)[C@@H](O)C1C(C)(C)CCC2O (stereo not given in full) in the records? 40.5

---

Test system: MOLT-4 leukemia
Experiment: NCI tumour cell line growth inhibition, 48 h; in the data active = GI50 below about 0.43 µM; inactive = the rest
Result category, one only: active, inactive

                                   molecule  discrete_label
0  COc1cc2nc(-c3ccc(Cl)cc3)cc(OCCCN3CCC(O)CC3)c2cc1OC        inactive
1  O=C(Nc1ccc(-n2cc(-c3ccncc3)c(-c3ccc(O)c(Cl)c3)n2)cc1)c1ccc(Cl)c(Cl)c1        inactive
2  Cn1cc(-c2csc(-c3cn(C)c4ncccc34)n2)c2ccccc21        inactive
3  CC(=O)[CH-]C(=O)c1ccccc1.CC(=O)[CH-]C(=O)c1ccccc1.[O-]Cc1cccs1.[O-]Cc1cccs1.[Ti+4]        inactive

Recorded test call requested for COc1cc2c(cc1OCCCN1CCN(CCCOc3cc4c(cc3OC)C(=O)C3CCC[C@H]3C=N4)CC1)N=C[C@@H]1CCCC1C2=O (some centres undefined) active

Also check "C#CCSc1nnnn1-c1ccc(Br)c(C)c1" inactive

Also check CN(C)CC1CCCC(CN(C)C)C1=O (centres undefined) active

Also check "CC/C(=C(/CC)c1ccc(OP(=O)([O-])[O-])cc1)c1ccc(OP(=O)([O-])[O-])cc1.N.N.N.N.[Pt+4].[Pt+4]" inactive

Also check "c1ccc(COc2ccc(Nc3ncnc4ccc(-c5ccco5)cc34)cc2)cc1" inactive

---

Tested on: T-47D breast
Assay: NCI tumour cell line growth inhibition, 48 h
Threshold rule: TGI greater than or equal to 20 µM is y; below that, n.

Solved cases (5 shown):
compound	discrete.label
CCC1c2[nH]c3ccccc3c2C[C@H]2C(=O)NC(Cc3ccccc3)C(=O)N12 (stereo not given in full)	y
CCOC(=O)c1c(-c2ccccc2)[nH]c2ccccc2c1=O	y
CC1=NN(c2ccccc2Cl)C2(C1)SCC(=O)N2c1nc2ccccc2s1 (stereo not given)	y
COC(=O)c1c(OC(C)=O)ccc2c1c1c(n2Cc2ccccc2)C(=O)c2ccccc2C1=O	y
COc1cc(O)c2c(=O)cc(C3(OC(C)=O)C=CC(OC4OC(CO)C(O)C(O)C4O)C=C3)oc2c1 (stereo not given)	y

Determine whether this compound has TGI no lower than 20 µM: "CCN=C(N)CSS(=O)(=O)O" y

Also check "c1ccc2c(-c3ccnc(-c4c[nH]c5ccccc45)n3)c[nH]c2c1" y

Also check "NCCCNCCCNc1nc2ccccc2c2[nH]c3ccccc3c12" n

Also check "CC(=O)/C(=C\n1c(=S)[nH]c2ccc([N+](=O)[O-])cc21)C(=O)Nc1ccccc1C" y

Also check COc1cc([C@@H]2c3cc4c(cc3[C@@H](N=Cc3ccc(C(=O)O[C@H]5C[C@H]6OC[C@@]6(OC(C)=O)[C@H]6[C@H](OC(=O)c7ccccc7)[C@]7(O)C[C@H](OC(=O)[C@H](OC(=O)c8ccc(C=N[C@@H]9c%10cc%11c(cc%10[C@@H](c%10cc(OC)c(O)c(OC)c%10)[C@H]%10C(=O)OC[C@@H]%109)OCO%11)cc8)[C@@H](NC(=O)c8ccccc8)c8ccccc8)C(C)=C([C@@H](OC(C)=O)C(=O)[C@]56C)C7(C)C)cc3)C3COC(=O)C32)OCO4)cc(C)c1O (stereo not given in full) y

Also check C=C(CNCCc1ccc(O)cc1)[C@@H]1CC[C@]2(CO)CC[C@]3(C)[C@H](CC[C@@H]4[C@@]5(C)CCC(NCCO)C(C)(C)[C@@H]5CC[C@]43C)[C@@H]12 (stereo not given in full) n

Also check "O=C(O)c1ccccc1/C=C1\Cc2ccc3c(c2C1=O)CCCC3" y

Also check "CC[C@]12C=CCN3CC[C@]4(C(=C(C(=O)OC)C1)Nc1ccccc14)[C@@H]32" n

Also check "N#Cc1c(-c2ccccc2)cc(Nc2ccc(F)cc2)n2c1nc1ccccc12" n

Also check "O=C1c2cccnc2-c2nc(-c3ccccc3)cc3c2c1nc1ccccc13" y

Also check CC(=O)NC1C(OCc2ccccc2)OC(CO)C(O)C1OC(C)C(=O)NC(C(=O)NC(CCC(=O)Nc1ccc2c(c1)CN1C(=O)c3ccccc3C1=N2)C(N)=O)C(C)C (stereo not given) y

Also check "O=[N+]([O-])c1ccc2nc(/C=C(\O)c3ccccc3)c(/C=C(\O)c3ccc(Cl)cc3)nc2c1" y

Also check C=C1C(=O)OC2C3C(=C)[C@@H](OC(C)=O)CC3C(C)=CC(OC(=O)C(C)(O)C(C)OC(C)=O)[C@@H]12 (stereo not given in full) y

Also check "CC1(C)O[C@@H]([C@@H](O)[C@H](O)C2SCCCS2)[C@@H](CO)O1" y

Also check "S=c1nc(/C=C/c2ccc(Cl)c(Cl)c2)[nH][nH]1" y

Also check "C/C=C(\C)C(=O)O[C@@H]1C=CC(=O)O[C@H]1COC(=O)[C@H](C)O" y

Also check "CCN(CC)c1ccc(/C=C/C2=[N+](C)c3ccccc3C2(C)C)cc1" n

Also check "NC(N)=NCCCS(=O)(=O)Nc1ccc(Nc2c3ccccc3nc3cc([N+](=O)[O-])ccc23)cc1" n

Also check OCC1OC(NC(=S)NCSCCC(F)(F)C(F)(F)C(F)(F)C(F)(F)C(F)(F)C(F)(F)F)C(O)C(O)C1O (stereo not given) y

Also check "O=C(O)Cc1ccccc1" y

Also check "CSc1nc2ccccc2c(=O)n1-c1cccc(C)c1" y

Also check "c1ccc(COc2ccc(Nc3ncnc4ccc(-c5ccco5)cc34)cc2)cc1" n

Also check "O=C(N/N=C1\CCc2ccccc21)N/N=C1\CCc2ccccc21" y
